Biological target: UniProt P37058
Sequence (whole entry): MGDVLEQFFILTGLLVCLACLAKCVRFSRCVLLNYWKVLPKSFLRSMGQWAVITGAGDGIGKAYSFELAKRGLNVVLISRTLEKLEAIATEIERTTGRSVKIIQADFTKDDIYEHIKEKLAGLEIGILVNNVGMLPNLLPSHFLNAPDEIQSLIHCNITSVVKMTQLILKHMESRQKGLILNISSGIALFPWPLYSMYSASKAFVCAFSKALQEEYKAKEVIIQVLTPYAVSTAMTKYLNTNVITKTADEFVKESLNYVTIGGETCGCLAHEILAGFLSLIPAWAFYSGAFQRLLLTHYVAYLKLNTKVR
Test: Inhibition of type-3 17 beta-hydroxysteroid dehydrogenase expressed in HEK293 cells at 3 uM 37 degree C pH 7.4
Format: cell-based
Where inhibition equals or exceeds 40%, the correct label is satisfied; where it does not, the label is not satisfied.

Example entries begin here.
{"COMPOUND": "C=CCO[C@@H]1CC[C@@]2(C)C(CC[C@@H]3[C@@H]2CC[C@]2(C)C(=O)CC[C@@H]32)C1 (stereo partly drawn)", "CLASS ASSIGNMENT": "satisfied"}
{"COMPOUND": "CCCC[C@@]1(O)CC[C@@]2(C)C(CC[C@@H]3[C@@H]2CC[C@]2(C)C(=O)CC[C@@H]32)C1 (stereo partly drawn)", "CLASS ASSIGNMENT": "satisfied"}
{"COMPOUND": "CO[C@]1(CCc2ccccc2)CC[C@@]2(C)C(CC[C@@H]3[C@@H]2CC[C@]2(C)C(=O)CC[C@@H]32)C1 (stereo partly drawn)", "CLASS ASSIGNMENT": "satisfied"}
{"COMPOUND": "C[C@]12CC[C@H](O)CC1CC[C@@H]1[C@@H]2CC[C@]2(C)C(=O)CC[C@@H]12 (stereo partly drawn)", "CLASS ASSIGNMENT": "not satisfied"}
{"COMPOUND": "C=CC[C@]1(O)CC[C@@]2(C)C(CC[C@@H]3[C@@H]2CC[C@]2(C)C(=O)CC[C@@H]32)C1 (stereo partly drawn)", "CLASS ASSIGNMENT": "not satisfied"}
{"COMPOUND": "C=CC[C@@]1(O)CC[C@@]2(C)C(CC[C@@H]3[C@@H]2CC[C@]2(C)C(=O)CC[C@@H]32)C1 (stereo partly drawn)", "CLASS ASSIGNMENT": "satisfied"}

Exercise: Does the reported inhibition for CCO[C@]1(Cc2ccccc2)CC[C@@]2(C)C(CC[C@@H]3[C@@H]2CC[C@]2(C)C(=O)CC[C@@H]32)C1 (stereo partly drawn) fall at or above the 40% mark?
Key: satisfied

====

Target: 17-beta-hydroxysteroid dehydrogenase type 3 (Homo sapiens)
Assay: Inhibition of type-3 17 beta-hydroxysteroid dehydrogenase expressed in HEK293 cells at 0.3 uM 37 degree C pH 7.4
Format: cell-based
PROPERTY: inhibition (%)
The response must be a number in % with no trailing unit.

{"COMPOUND": "CC(O)CO[C@@H]1CC[C@@]2(C)C(CC[C@@H]3[C@@H]2CC[C@]2(C)C(=O)CC[C@@H]32)C1 (some centres undefined)", "TARGET UNDER TEST": "17-beta-hydroxysteroid dehydrogenase type 3 (Homo sapiens)", "PROPERTY": "inhibition", "NUMERIC READOUT": 40}
{"COMPOUND": "CCO[C@@H]1CC[C@@]2(C)C(CC[C@@H]3[C@@H]2CC[C@]2(C)C(=O)CC[C@@H]32)C1 (some centres undefined)", "TARGET UNDER TEST": "17-beta-hydroxysteroid dehydrogenase type 3 (Homo sapiens)", "PROPERTY": "inhibition", "NUMERIC READOUT": 69}
{"COMPOUND": "CO[C@@H]1CC[C@@]2(C)C(CC[C@@H]3[C@@H]2CC[C@]2(C)C(=O)CC[C@@H]32)C1 (some centres undefined)", "TARGET UNDER TEST": "17-beta-hydroxysteroid dehydrogenase type 3 (Homo sapiens)", "PROPERTY": "inhibition", "NUMERIC READOUT": 83}

Now take the following compound into account.
Exercise: So what's the measured inhibition for this one? CCCO[C@]1(Cc2ccccc2)CC[C@@]2(C)C(CC[C@@H]3[C@@H]2CC[C@]2(C)C(=O)CC[C@@H]32)C1 (some centres undefined)
Key: 60

====

// inhibition lookup, one value per entry
Target: UniProt:P37058
Assay: Inhibition of type-3 17 beta-hydroxysteroid dehydrogenase expressed in HEK293 cells at 0.3 uM 37 degree C pH 7.4
Assay type: cell-based
Quick reminder: number only, in %, skip the unit.

Field: example entries. Status: answers known.
{"COMPOUND": "CCCO[C@@H]1CC[C@@]2(C)C(CC[C@@H]3[C@@H]2CC[C@]2(C)C(=O)CC[C@@H]32)C1 (some centres not stated)", "inhibition [%]": 49}
{"COMPOUND": "C[C@]12CC[C@@H](OCCCO)CC1CC[C@@H]1[C@@H]2CC[C@]2(C)C(=O)CC[C@@H]12 (some centres not stated)", "inhibition [%]": 38}
{"COMPOUND": "C[C@]12CC[C@H](O)CC1CC[C@@H]1[C@@H]2CC[C@]2(C)C(=O)CC[C@@H]12 (some centres not stated)", "inhibition [%]": 1}

Exercise: What measured inhibition goes with CCCC[C@@]1(O)CC[C@@]2(C)C(CC[C@@H]3[C@@H]2CC[C@]2(C)C(=O)CC[C@@H]32)C1 (some centres not stated) ?
Key: 88

Exercise: Also C=CC[C@]1(O)CC[C@@]2(C)C(CC[C@@H]3[C@@H]2CC[C@]2(C)C(=O)CC[C@@H]32)C1 (some centres not stated) , if possible.
Key: 14

Exercise: Same again, this time with C=C[C@@]1(O)CC[C@@]2(C)C(CC[C@@H]3[C@@H]2CC[C@]2(C)C(=O)CC[C@@H]32)C1 (some centres not stated)
Key: 77

Exercise: Try the compound C[C@]12CC[C@@](O)(Cc3ccccc3)CC1CC[C@@H]1[C@@H]2CC[C@]2(C)C(=O)CC[C@@H]12 (some centres not stated)
Key: 10

====

Biological target: 17-beta-hydroxysteroid dehydrogenase type 3 (Homo sapiens)
Experiment: Inhibition of type-3 17 beta-hydroxysteroid dehydrogenase expressed in HEK293 cells at 3 uM 37 degree C pH 7.4
Type: cell-based
PROPERTY: inhibition (%)
Kindly answer with a numeric value in %, unit omitted.

Exercise: Find inhibition (17-beta-hydroxysteroid dehydrogenase type 3 (Homo sapiens)) for the entry CO[C@]1(CCC2CCCCC2)CC[C@@]2(C)C(CC[C@@H]3[C@@H]2CC[C@]2(C)C(=O)CC[C@@H]32)C1 (stereo partly drawn)
Key: 88

Exercise: Now the compound CCCCCCO[C@@H]1CC[C@@]2(C)C(CC[C@@H]3[C@@H]2CC[C@]2(C)C(=O)CC[C@@H]32)C1 (stereo partly drawn)
Key: 92

Exercise: # iterate: CC(O)CO[C@@H]1CC[C@@]2(C)C(CC[C@@H]3[C@@H]2CC[C@]2(C)C(=O)CC[C@@H]32)C1 (stereo partly drawn)
Key: 89
